TARGET OR TEST SYSTEM: T1, human cholecystokinin-2 receptor (human, UniProt P32239 1-447)
T1 sequence (looked up): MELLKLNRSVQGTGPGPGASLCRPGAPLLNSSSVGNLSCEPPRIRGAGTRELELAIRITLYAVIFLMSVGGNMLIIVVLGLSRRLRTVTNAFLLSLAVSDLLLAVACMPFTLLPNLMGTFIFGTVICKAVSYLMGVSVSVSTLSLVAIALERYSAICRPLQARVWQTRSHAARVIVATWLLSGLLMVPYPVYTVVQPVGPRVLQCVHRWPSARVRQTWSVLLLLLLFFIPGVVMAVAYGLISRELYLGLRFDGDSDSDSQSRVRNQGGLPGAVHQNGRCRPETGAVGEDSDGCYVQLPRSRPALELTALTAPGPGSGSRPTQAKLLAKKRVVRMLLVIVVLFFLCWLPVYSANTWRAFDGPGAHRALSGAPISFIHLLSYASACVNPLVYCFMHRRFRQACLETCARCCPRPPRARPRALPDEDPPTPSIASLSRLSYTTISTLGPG
MEASUREMENT NOTES: cell-based or functional assay
Starred links: 1 amine or outer side, 2 acyl side, 3 side chain; linkers in the order of their positions; H or OH if unused. Non-standard residues stand in square brackets, D forms with d. No end group written: not given here. *: point of attachment. Phe(4-CH2SO3H) = N[C@@H](Cc1ccc(CS(=O)(=O)O)cc1)C(=O)O; sY = N[C@@H](Cc1ccc(OS(=O)(=O)O)cc1)C(=O)O; C18 diacid = O=C(O)CCCCCCCCCCCCCCCCC(=O)*; C16 diacid = O=C(O)CCCCCCCCCCCCCCC(=O)*; γGlu = O=C(O)[C@H](CCC(=O)[*:2])N[*:1]; βAsp = O=C(O)[C@H](CC(=O)[*:2])N[*:1]; NMeF = CN[C@@H](Cc1ccccc1)C(=O)O; dNMeD = CN[C@H](CC(=O)O)C(=O)O; Nle = CCCC[C@H](N)C(=O)O; AEEA = NCCOCCOCC(=O)O
// reported EC50 (CCK-2R) per item
ENDPOINT NAME: EC50 (CCK-2R) (nM)

binder="[βAsp][Phe(4-CH2SO3H)][Nle]GW[Nle][dNMeD][NMeF]-NH2 (N-terminus assumed; SMILES CCCC[C@H](NC(=O)[C@H](Cc1ccc(CS(=O)(=O)O)cc1)NC(=O)C[C@H](N)C(=O)O)C(=O)NCC(=O)N[C@@H](Cc1c[nH]c2ccccc12)C(=O)N[C@@H](CCCC)C(=O)N(C)[C@H](CC(=O)O)C(=O)N(C)[C@@H](Cc1ccccc1)C(N)=O, X = Nle or Nal) [bAsp-Phe(4-sulfomethyl)-Nle-Gly-Trp-Nle-DMeAsp-MePhe-amide]" value_comparator=> observed_value=1000
binder="{C18 diacid-γGlu-AEEA-AEEA}-E[sY]LGW[Nle][dNMeD][NMeF]-NH2 (X = Nle or Nal)" value_comparator== observed_value=62
binder="{C18 diacid}-GSSGSSD[sY]LGW[Nle][dNMeD][NMeF]-NH2 (SMILES CCCC[C@H](NC(=O)[C@H](Cc1c[nH]c2ccccc12)NC(=O)CNC(=O)[C@H](CC(C)C)NC(=O)[C@H](Cc1ccc(OS(=O)(=O)O)cc1)NC(=O)[C@H](CC(=O)O)NC(=O)[C@H](CO)NC(=O)[C@H](CO)NC(=O)CNC(=O)[C@H](CO)NC(=O)[C@H](CO)NC(=O)CNC(=O)CCCCCCCCCCCCCCCCC(=O)O)C(=O)N(C)[C@H](CC(=O)O)C(=O)N(C)[C@@H](Cc1ccccc1)C(N)=O, X = Nle or Nal; The Gly-Ser-Ser-Gly-Ser-Ser linker is written as part of the chain) [17-Carboxyheptadecanoyl-Gly-Ser-Ser-Gly-Ser-Ser-Asp-sTyr-Leu-Gly-Trp-Nle-DMeAsp-MePhe-amide]" value_comparator== observed_value=17
binder="{C18 diacid-γGlu-AEEA-AEEA}-D[sY][Nle]GW[Nle][dNMeD]W-NH2 (SMILES CCCC[C@H](NC(=O)[C@H](Cc1ccc(OS(=O)(=O)O)cc1)NC(=O)[C@H](CC(=O)O)NC(=O)COCCOCCNC(=O)COCCOCCNC(=O)CC[C@H](NC(=O)CCCCCCCCCCCCCCCCC(=O)O)C(=O)O)C(=O)NCC(=O)N[C@@H](Cc1c[nH]c2ccccc12)C(=O)N[C@@H](CCCC)C(=O)N(C)[C@H](CC(=O)O)C(=O)N[C@@H](Cc1c[nH]c2ccccc12)C(N)=O, X = Nle or Nal)" value_comparator=> observed_value=1000
binder="{C16 diacid-γGlu-AEEA-AEEA}-E[sY]LGW[Nle][dNMeD][NMeF]-NH2 (X = Nle or Nal)" value_comparator== observed_value=110
binder="{C18 diacid-γGlu-AEEA-AEEA}-[dE][sY]LGW[Nle][dNMeD][NMeF]-NH2 (X = Nle or Nal)" value_comparator== observed_value=46
binder="E[sY]LGW[Nle][dNMeD]F-NH2 (N-terminus assumed; SMILES CCCC[C@H](NC(=O)[C@H](Cc1c[nH]c2ccccc12)NC(=O)CNC(=O)[C@H](CC(C)C)NC(=O)[C@H](Cc1ccc(OS(=O)(=O)O)cc1)NC(=O)[C@@H](N)CCC(=O)O)C(=O)N(C)[C@H](CC(=O)O)C(=O)N[C@@H](Cc1ccccc1)C(N)=O, X = Nle or Nal) [Glu-sTyr-Leu-Gly-Trp-Nle-DMeAsp-Phe-amide]" value_comparator=> observed_value=1000
binder="D[sY]KGW[Nle][dNMeD][NMeF]-NH2 (N-terminus assumed; SMILES CCCC[C@H](NC(=O)[C@H](Cc1c[nH]c2ccccc12)NC(=O)CNC(=O)[C@H](CCCCN)NC(=O)[C@H](Cc1ccc(OS(=O)(=O)O)cc1)NC(=O)[C@@H](N)CC(=O)O)C(=O)N(C)[C@H](CC(=O)O)C(=O)N(C)[C@@H](Cc1ccccc1)C(N)=O, X = Nle or Nal) [Asp-sTyr-Lys-Gly-Trp-Nle-DMeAsp-MePhe-amide]" value_comparator=> observed_value=1000
binder="D[sY]LGWL[DMeAsp][NMeF]-NH2 [Asp-sTyr-Leu-Gly-Trp-Leu-DMeAsp-MePhe-amide]" value_comparator=> observed_value=1000
binder="{C18 diacid-γGlu-AEEA-AEEA}-E[sY]LGWQ[dNMeD][NMeF]-NH2" value_comparator=> observed_value=1000
binder="{C18 diacid-γGlu-AEEA-AEEA}-E[sY]LGWQ[dNMeD]F-NH2" value_comparator=> observed_value=1000
binder="{C18 diacid-γGlu-AEEA-AEEA}-D[sY]IGW[Nle][dNMeD][NMeF]-NH2 (X = Nle or Nal)" value_comparator== observed_value=210
binder="{C18 diacid-γGlu-AEEA-AEEA}-D[sY]PGW[Nle][dNMeD][NMeF]-NH2 (X = Nle or Nal)" value_comparator== observed_value=300
binder="{C18 diacid-γGlu-AEEA-AEEA}-D[sY]KGW[Nle][dNMeD][NMeF]-NH2 (X = Nle or Nal)" value_comparator== observed_value=310
